tested_on: Metabotropic glutamate receptor 8 (Rattus norvegicus) (UniProt P70579)
Sequence (P70579 whole entry, looked up): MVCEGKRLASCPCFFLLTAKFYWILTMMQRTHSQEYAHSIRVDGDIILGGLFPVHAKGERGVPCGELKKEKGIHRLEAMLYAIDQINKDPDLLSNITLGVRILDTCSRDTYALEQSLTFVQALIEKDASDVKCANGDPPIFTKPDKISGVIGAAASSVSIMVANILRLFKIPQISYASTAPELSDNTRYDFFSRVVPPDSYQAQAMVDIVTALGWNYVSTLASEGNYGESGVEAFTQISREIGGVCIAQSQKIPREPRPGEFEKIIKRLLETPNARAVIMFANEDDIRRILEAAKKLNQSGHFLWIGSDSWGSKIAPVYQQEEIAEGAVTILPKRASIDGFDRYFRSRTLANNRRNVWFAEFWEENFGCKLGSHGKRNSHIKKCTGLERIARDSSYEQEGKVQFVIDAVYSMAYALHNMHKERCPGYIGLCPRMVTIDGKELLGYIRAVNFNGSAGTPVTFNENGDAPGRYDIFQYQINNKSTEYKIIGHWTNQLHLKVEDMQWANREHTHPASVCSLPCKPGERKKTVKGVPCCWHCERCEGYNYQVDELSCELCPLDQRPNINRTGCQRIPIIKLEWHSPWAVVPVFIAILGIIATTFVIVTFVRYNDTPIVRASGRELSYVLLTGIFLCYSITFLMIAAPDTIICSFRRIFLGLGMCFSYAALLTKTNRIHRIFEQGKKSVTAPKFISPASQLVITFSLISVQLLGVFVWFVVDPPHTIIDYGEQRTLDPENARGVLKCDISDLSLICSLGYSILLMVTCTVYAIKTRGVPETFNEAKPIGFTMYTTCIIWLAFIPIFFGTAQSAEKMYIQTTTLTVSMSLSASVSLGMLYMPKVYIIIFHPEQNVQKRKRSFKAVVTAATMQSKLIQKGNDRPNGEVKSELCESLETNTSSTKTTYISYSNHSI
method_summary: mGluR8 Gi/Go-coupled signaling modulation – cell-based, rat, thallium flux, HTS, primary screen (AID 488969)
applied_conditions: HEK293 rat mGluR8, GIRK thallium flux, FluoZin2; at 10 µM; stronger effect = higher value; submaximal glutamate (EC20) added with thallium
In all, about 110,000 compounds were measured (“z-score”: median about -0.1, highest 2% from about 2 on). Shown is part of a subset that was picked to be rich in the highest values.
measured_quantity: z-score
Give the figure only, with no unit attached.

S=c1nc2ccccc2c2nc(-c3ccccc3)[nH]n12 has a reported z-score of 2.81

The value of z-score measured for the molecule C/C(=N\NC(=S)NCc1ccccc1)c1ccc2ccccc2c1 turned out to be 2.12

The molecule COc1cc(CCN2C(=O)c3cccc4cccc(c34)C2=O)c(S(=O)(=O)N2CCCCCC2)cc1OC showed z-score equal to -0.297

For reference, reported z-score for COCC(C)n1c(SCC(=O)NC(=O)Nc2ccc3c(c2)OCCO3)nc2ccccc2c1=O (stereo not given) stands at -1.25

Input O=C(Nc1ccccc1)C(Cc1cccs1)c1nn[nH]n1 (stereo not given) . Output z-score: 0.0119

---

tested_on: Metabotropic glutamate receptor 8 (Rattus norvegicus)
method_summary: mGluR8 Gi/Go-coupled signaling modulation – cell-based, rat, thallium flux, HTS, primary screen (AID 488969)
applied_conditions: HEK293 rat mGluR8, GIRK thallium flux, FluoZin2; at 10 µM; stronger effect = higher value; submaximal glutamate (EC20) added with thallium
Whole data set: some 110,000 compounds, median “z-score” near -0.1, cut for the highest 2% near 2. Shown is part of a subset that was picked to be rich in the highest values.
Listed below: z-score values for each entry.
Enter a number only.

[[record]]
molecule = "Cc1ccccc1C(=O)NNC(=O)C(=O)Nc1cccc(Cl)c1C"
quantitative_result = 6.02

[[record]]
molecule = "c1coc(CN(Cc2ccco2)c2ncnc3c2oc2ccccc23)c1"
quantitative_result = -2.18

[[record]]
molecule = "COCCSc1ccccc1C(=O)Nc1ccncc1"
quantitative_result = 0.236

[[record]]
molecule = "CCc1nc2ccccc2[nH]1"
quantitative_result = 0.00543

[[record]]
molecule = "COc1cc(C)c(S(=O)(=O)Nc2ccc(CC(=O)O)cc2)cc1C"
quantitative_result = 2.01


Reported z-score for O=C(Nc1ccc2c(c1)OCO2)c1noc2c1CCCCC2 was 0.597

So, CC(C)(C)c1nnc(N/N=C/c2ccc(Br)cc2)n(N)c1=O ? Its z-score was 0.0626

Short answer for COc1ccc(C)c(S(=O)(=O)Nc2ccc(OCC(=O)O)cc2)c1 : z-score was 0.2

Entry under test: O=C(COc1ccc(Cl)cc1Cl)NC(=O)N1CCCCC1 . Its z-score was 1.09

---

tested_on: Metabotropic glutamate receptor 8 (Rattus norvegicus)
method_summary: mGluR8 Gi/Go-coupled signaling modulation – cell-based, rat, thallium flux, HTS, primary screen (AID 488969)
applied_conditions: HEK293 rat mGluR8, GIRK (G protein-gated inwardly rectifying potassium channel) thallium flux, FluoZin2; at 10 µM; stronger effect = higher value; submaximal glutamate (EC20) added with thallium
Over roughly 110,000 compounds, “z-score” has its median near -0.1; the highest 2% begin near 2. The full list was thinned out, with the highest values kept by preference.
If the reported z-score equals or exceeds 0.2, assign 1 (yes). If not, assign 0 (no).

Here are 5 compounds together with their reported answers.
[[record]]
compound = "Cc1ccc(N2C(=O)c3ccccc3C2Nc2ccccc2)nc1 (stereo unspecified)"
group = "0 (no)"

[[record]]
compound = "N#Cc1ccccc1CSc1ccc(-c2nc3ccccc3[nH]2)cn1"
group = "0 (no)"

[[record]]
compound = "CCCC(=O)NC(=S)Nc1ccc(N2CCOCC2)c(Cl)c1"
group = "1 (yes)"

[[record]]
compound = "CNS(=O)(=O)c1cc(C(=O)NCc2ccco2)ccc1Cl"
group = "0 (no)"

[[record]]
compound = "CCOC(=O)C1C(=O)C=C(c2ccc(C)cc2)CC1c1ccco1 (stereo unspecified)"
group = "0 (no)"


Identify whether the reported z-score of the following compound is 0.2 or greater: CC(=C/C(=O)O)/C=C/c1ccc([N+](=O)[O-])cc1
0 (no)

Form field: z-score at least 0.2? Entry: O=C(C1CCC(CNS(=O)(=O)c2cccc3cccnc23)CC1)N1CCc2ccccc21 (stereo unspecified)
0 (no)

Confirm if z-score reported for the compound CC1CCN(S(=O)(=O)c2ccc(NC(=O)CN3CCCC(C)C3)cc2)CC1 (stereo unspecified) is 0.2 or above.
1 (yes)

Could you tell me if the measured z-score of COc1ccc(CC(=O)NNC(=S)Nc2ccccc2)cc1Br reaches 0.2 or more?
1 (yes)

Decide: is the reported value of z-score for CCN(CC)CCCN1C(=O)c2oc3ccccc3c(=O)c2C1c1cccnc1 (stereo unspecified) equal to or greater than 0.2?
1 (yes)

Dear colleague, could you confirm whether Cc1cc(Cl)ccc1OCC(=O)Nc1ccccc1N1CCOCC1 has z-score at or above 0.2?
1 (yes)
